molecular target: Type-1 angiotensin II receptor (Oryctolagus cuniculus)
Sequence (P34976 whole entry): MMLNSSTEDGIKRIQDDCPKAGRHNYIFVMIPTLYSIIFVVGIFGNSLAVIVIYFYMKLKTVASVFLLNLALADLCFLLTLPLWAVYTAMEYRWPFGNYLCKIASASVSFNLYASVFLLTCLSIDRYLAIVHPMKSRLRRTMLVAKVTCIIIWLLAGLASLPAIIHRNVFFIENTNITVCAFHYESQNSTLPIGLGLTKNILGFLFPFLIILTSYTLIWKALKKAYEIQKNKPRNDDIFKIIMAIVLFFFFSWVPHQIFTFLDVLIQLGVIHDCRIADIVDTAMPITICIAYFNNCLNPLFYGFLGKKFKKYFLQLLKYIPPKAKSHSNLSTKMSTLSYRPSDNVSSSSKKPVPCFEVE
Provide the reported IC50 of each item.
Give bare numbers, in nM.

compound="CCc1nc2c(C)cc(C)nc2n1Cc1ccc(OC(C(=O)O)c2ccccc2)c(OC)c1 (centres undefined)" recorded_metric=IC50 experimental_value=170
compound="CCCc1cc(Cn2c(CC)nc3c(C)cc(C)nc32)ccc1OC(C(=O)O)c1ccccc1Cl (centres undefined)" recorded_metric=IC50 experimental_value=8
compound="CCCc1cc(Cn2c(CC)nc3c(C)cc(C)nc32)ccc1OC(C(=O)O)c1ccccc1C (centres undefined)" recorded_metric=IC50 experimental_value=11

Please examine the following record next.
For this compound ( CCc1nc2c(C)cc(C)nc2n1Cc1ccc(OC(C(=O)O)c2ccccc2C)cc1 (centres undefined) ), measured IC50 is 6

---

// endpoint IC50 / system Type-1 angiotensin II receptor (Oryctolagus cuniculus, UniProt P34976)
Numbers only, in nM.

Recorded IC50, per entry:
molecule="CCc1nc2c(C)cc(C)nc2n1Cc1ccc(OC(C(=O)O)c2ccccc2C)c(Cl)c1 (stereo not given)" unit_annotation=nM experimental_value=3.4
molecule="CCCCc1cc(Cn2c(CC)nc3c(C)cc(C)nc32)ccc1OC(C(=O)O)c1ccccc1 (stereo not given)" unit_annotation=nM experimental_value=12
molecule="CCc1nc2c(C)cc(C)nc2n1Cc1ccc(OC(C(=O)O)c2ccccc2)c(C(C)(C)C)c1 (stereo not given)" unit_annotation=nM experimental_value=50

Could you report IC50 for every entry in the following list?
1. CCc1nc2c(C)cc(C)nc2n1Cc1ccc(OC(C(=O)O)c2ccccc2Cl)cc1 (stereo not given)
2. CCCc1cc(Cn2c(CC)nc3c(C)cc(C)nc32)ccc1OC(C(=O)O)c1ccccc1OC (stereo not given)

1: 10; 2: 9.5

---

Target: Type-2 angiotensin II receptor (Rattus norvegicus)
Sequence (P35351 whole entry): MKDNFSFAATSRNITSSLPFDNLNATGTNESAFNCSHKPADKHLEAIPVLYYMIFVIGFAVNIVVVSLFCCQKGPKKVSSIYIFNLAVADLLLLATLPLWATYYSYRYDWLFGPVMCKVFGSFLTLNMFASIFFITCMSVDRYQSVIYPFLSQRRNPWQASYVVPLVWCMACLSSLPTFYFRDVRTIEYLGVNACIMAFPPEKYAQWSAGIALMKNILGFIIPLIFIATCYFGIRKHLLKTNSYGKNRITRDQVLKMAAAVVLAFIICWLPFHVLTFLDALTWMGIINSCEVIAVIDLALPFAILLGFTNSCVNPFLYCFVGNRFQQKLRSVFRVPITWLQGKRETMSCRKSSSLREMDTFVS
recorded_metric: pIC50
Answers are plain numbers, as −log10 of the molar value.

compound="CCc1cc(Cn2c(CC)nc3c(C)cc(C)nc32)ccc1OC(C(=O)O)c1ccccc1 (centres undefined)" experimental_value=6.39
compound="CCCc1cc(Cn2c(CC)nc3c(C)cc(C)nc32)ccc1OC(C(=O)O)c1ccccc1 (centres undefined)" experimental_value=7.33
compound="CCc1nc2c(C)cc(C)nc2n1Cc1ccc(OC(C(=O)O)c2ccccc2)c(C(C)C)c1 (centres undefined)" experimental_value=5.48
compound="CCc1nc2c(C)cc(C)nc2n1Cc1ccc(OC(C(=O)O)c2ccccc2)c(C)c1 (centres undefined)" experimental_value=6.03

List reported pIC50 for each of these compounds:
1. CCc1nc2c(C)cc(C)nc2n1Cc1cc(Cl)c(OC(C(=O)O)c2ccccc2)c(Cl)c1 (centres undefined)
2. C=CCc1cc(Cn2c(CC)nc3c(C)cc(C)nc32)ccc1OC(C(=O)O)c1ccccc1 (centres undefined)
3. CCCCc1nc2ccccc2n1Cc1ccc(OC(C(=O)O)c2ccccc2)cc1 (centres undefined)
4. CCCCc1cc(Cn2c(CC)nc3c(C)cc(C)nc32)ccc1OC(C(=O)O)c1ccccc1 (centres undefined)
5. CCc1nc2c(C)cc(C)nc2n1Cc1ccc(OC(C(=O)O)c2ccccc2)c(Cl)c1 (centres undefined)

[5.05, 6.57, 5.70, 6.85, 6.14]
